System: OCI-LY10 cells
Assay: Cell proliferation assay (MTS) in OCI-LY10 cells
Assay type: cell-based
Settings: Homo sapiens; inhibition of OCI-LY10 cells proliferation, 72 h incubation, MTS, absorbance at 490 nm; read-out: OCI-LY10 IC50
recorded.endpoint: IC50 (nM)
# value in nM; strip the unit string

molecule | unit.tag | IC50
COc1ccc(F)cc1C(=O)NCc1ccc(-c2nn(C(C)C(C)(C)C)c3c(=O)[nH]nc(N)c23)cc1 (stereo not shown) | nM | 1

Enquiry: Consider the molecule COc1ccc(F)cc1C(=O)NCc1ccc(-c2nn(C3(C(F)F)CC3)c3c(=O)[nH]nc(N)c23)cc1 and give its measured IC50.
Return: 4

Enquiry: Consider the molecule COc1ccc(F)cc1C(=O)NCc1ccc(-c2cn([C@@H]3CCN(S(C)(=O)=O)C3)c3c(=O)[nH]nc(N)c23)cc1 and give its measured IC50.
Return: 19

Enquiry: Consider the molecule COc1ccc(F)cc1C(=O)NCc1ccc(-n2nc(C3CC3(F)F)c3c(=O)[nH]nc(N)c32)cc1 (stereo not shown) and give its measured IC50.
Return: 65

Enquiry: Consider the molecule COc1ccc(F)cc1C(=O)NCc1ccc(-c2cn([C@@H]3CCN(C(=O)OC(C)C)C3)c3c(=O)[nH]nc(N)c23)cc1 and give its measured IC50.
Return: 4

Enquiry: Consider the molecule COc1ccc(F)cc1C(=O)NCc1ccc(-n2nc(C(C)C(F)(F)F)c3c(=O)[nH]nc(N)c32)cc1 (stereo not shown) and give its measured IC50.
Return: 18

Enquiry: Consider the molecule COc1ccc(F)cc1C(=O)NCc1ccc(-c2nn([C@@H](C(F)F)C3CC3)c3c(=O)[nH]nc(N)c23)cc1 and give its measured IC50.
Return: 1

###

IC50 reference
Test system: OCI-LY10 cells
Assay: Cell proliferation assay (MTS) in OCI-LY10 cells
Type: cell-based
Conditions: Homo sapiens; inhibition of OCI-LY10 cells proliferation, 72 h incubation, MTS, absorbance at 490 nm; read-out: OCI-LY10 IC50
# value in nM; strip the unit string

Some solved entries appear below for comparison.
compound | reported.value
CCS(=O)(=O)N1CC[C@@H](n2cc(-c3ccc(CNC(=O)c4cc(F)ccc4OC)cc3)c3c(N)n[nH]c(=O)c32)C1 | 23
COc1ccc(F)cc1C(=O)NCc1ccc(-c2nn(C(C)(C)C(F)F)c3c(=O)[nH]nc(N)c23)cc1 | 18
CCC(C)c1nn(-c2ccc(CNC(=O)c3cc(F)ccc3OC)cc2)c2c(N)n[nH]c(=O)c12 (stereo not drawn) [Example 92a] | 10
COc1ccc(F)cc1C(=O)NCc1ccc(-c2cn([C@@H]3C[C@@H]3F)c3c(=O)[nH]nc(N)c23)cc1F | 62
COc1ccc(F)cc1C(=O)NCc1ccc(-c2cn(C3CCCC3)c3c(=O)[nH]nc(N)c23)c(F)c1 | 1
COc1ccc(F)cc1C(=O)NCc1ccc(-c2nn(C3CCC3)c3c(=O)[nH]nc(N)c23)cc1 | 1

Enquiry: Consider the compound COc1cc(F)c(F)cc1C(=O)NCc1ccc(-c2cn(C3CCCC3)c3c(=O)[nH]nc(N)c23)cc1 and give its measured IC50.
Return: 50

Enquiry: Consider the compound COc1ncc(F)cc1C(=O)NCc1ccc(-c2nn(C3CCCC3)c3c(=O)[nH]nc(N)c23)cc1 and give its measured IC50.
Return: 15

Enquiry: Consider the compound COc1ccc(F)cc1C(=O)NCc1ccc(-c2nn(C(C)CF)c3c(=O)[nH]nc(N)c23)cc1 (stereo not drawn) and give its measured IC50.
Return: 12

Enquiry: Consider the compound COc1ccc(F)cc1C(=O)NCc1ccc(-n2c(=O)n(C3CCCC3)c3ccnc(N)c32)cc1 and give its measured IC50.
Return: 44

Enquiry: Consider the compound COc1ccc(F)cc1C(=O)NCc1ccc(-c2cn([C@@H]3CCN(C(=O)N4CCC4)C3)c3c(=O)[nH]nc(N)c23)cc1 and give its measured IC50.
Return: 11

Enquiry: Consider the compound COc1ccc(F)cc1C(=O)NCc1ccc(-c2nn([C@H](C)C(F)(F)F)c3c(=O)[nH]nc(N)c23)cc1 [Example 40b] and give its measured IC50.
Return: 83

Enquiry: Consider the compound COc1ccc(F)cc1C(=O)NCc1ccc(-c2nn(C(C)C)c3c(=O)[nH]nc(N)c23)cc1 and give its measured IC50.
Return: 2

Enquiry: Consider the compound COc1ccc(F)cc1C(=O)NCc1ccc(-c2cn(C3CC3)c3c(=O)[nH]nc(N)c23)cc1 and give its measured IC50.
Return: 4

Enquiry: Consider the compound CC[C@@H](C)c1nn(-c2ccc(CNC(=O)c3cc(F)ccc3OC)cc2)c2c(N)n[nH]c(=O)c12 [Example 92b] and give its measured IC50.
Return: 22
